# system-name: T1, MAdCAM-IgG1 Fc fusion protein (human)
# T1 construct: Made in CHO-DHFR cells; also called MAdCAM-IgFc
# T1 sequence (chain, as listed by the source limits assumed): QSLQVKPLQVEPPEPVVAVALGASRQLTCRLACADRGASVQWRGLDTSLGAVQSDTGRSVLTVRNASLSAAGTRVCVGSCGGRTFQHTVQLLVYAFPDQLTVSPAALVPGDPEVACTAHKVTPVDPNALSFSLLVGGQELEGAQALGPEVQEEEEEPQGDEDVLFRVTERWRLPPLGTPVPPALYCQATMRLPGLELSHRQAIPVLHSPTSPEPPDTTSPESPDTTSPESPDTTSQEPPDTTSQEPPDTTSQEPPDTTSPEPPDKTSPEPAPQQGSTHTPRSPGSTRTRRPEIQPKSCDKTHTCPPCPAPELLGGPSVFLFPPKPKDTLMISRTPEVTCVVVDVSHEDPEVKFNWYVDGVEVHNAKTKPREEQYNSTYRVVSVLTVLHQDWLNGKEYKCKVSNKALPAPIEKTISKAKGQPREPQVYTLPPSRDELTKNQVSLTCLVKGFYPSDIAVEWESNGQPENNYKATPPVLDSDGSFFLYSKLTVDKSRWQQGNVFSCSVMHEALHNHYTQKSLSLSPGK
# procedure-details: SPR BIAcore protocol 2: mAb amine-coupled, MAdCAM-IgG1 Fc injected
// values below are reported koff
Numeric answer only, unit s⁻¹ assumed.

[[record]]
binder = "anti-MAdCAM monoclonal antibody 7.26.4 (antibody, human IgG2, kappa, V domains shown, human IgG2 kappa from hybridoma 7.26.4) VH: QVQLVQSGAEVKKPGASVKVSCEASGYTFTSYGIDWVRQAPGQGLEWMGWISVYSGNTNYAQKLQGRVTMSTDTSTSTAYMELRSLRSDDTAVYYCAREGSSSSGDYYYGMDVWGQGTTVTVSS VL: DIVMTQTPLSLSVTPGQPASISCKSNQSLLYSDGKTYLFWYLQKPGQPPQLLIYEVSNRFSGVPDRFSGSGSGTDFTLKISRVEAEDVGVYYCMQSIQLPWTFGQGTKVEIKR"
number = "1.2e-05"

[[record]]
binder = "anti-MAdCAM monoclonal antibody 6.22.2 (antibody, human IgG4, kappa, V domains shown, human IgG4 kappa from hybridoma 6.22.2) VH: QVQLVESGGGVVQPGRSLRLSCAASGHTFSSDGMHWVRQAPGKGLEWVAIIWYDGSNKYYADSVKGRFTISRDNSKNTLYLQMNSLRAEDTAVYYCARDPGYYYGMDVWGQGTTVTVSS VL: EIVLTQSPDFQSVTPKEKVTITCRASQRIGSSLHWYQQKPDQSPKLLIKYASQSFSGVPSRFSGSGSGTNFTLTINGLEAEDAATYYCHQSGRLPLTFGGGTKVEIKR"
number = "8.7e-07"


Field: next binder
Form: binder = anti-MAdCAM monoclonal antibody 9.8.2 (antibody, human IgG4, kappa, V domains shown, human IgG4 kappa from hybridoma 9.8.2) VH: QVQLVESGGGVVQPGRSLRLSCAASGFTFSSYGMHWVRQAPGKGLEWVAVIWYDGSNEYYADSVKGRFTISRDNSKNTLYLQMNSLRAEDTAVYYCARGAYHFAYWGQGTLVTVSS VL: DIQMTQSPSSLSASVGDRVTITCQASQDISNYLNWYQQKPGKAPKLLIYDASNLETGVPSRFSGSGSGTDFTFTISSLQPEDIATYSCQHSDNLSITFGQGTRLEIKR ; koff = 1.4e-05
